protocol text: in vitro
Format: cell-based
reported conditions: human, Hemolytic Activity (percentage hemolysis)
Non-standard residues stand in square brackets, D forms with d. Residues, ends and D or L forms follow the SMILES beside them. N(5-aminopentyl)Gly = NCCCCCNCC(=O)O; Nlys = NCCCCNCC(=O)O
measured quantity: hemolysis at 60 min, 800 µg/mL

[[record]]
molecule = "NCCCCCNCC(=O)N[C@@H](Cc1ccccc1)C(=O)N(CCCCCN)CC(=O)N[C@@H](Cc1ccccc1)C(=O)N(CCCCCN)CC(=O)N[C@@H](Cc1ccccc1)C(=O)N(CCCCCN)CC(=O)N[C@@H](Cc1ccccc1)C(=O)N(CCCCCN)CC(=O)N[C@@H](Cc1ccccc1)C(=O)N(CCCCCN)CC(=O)N[C@@H](Cc1ccccc1)C(N)=O [Peptidomimetic 4] (H-[N(5-aminopentyl)Gly]F[N(5-aminopentyl)Gly]F[N(5-aminopentyl)Gly]F[N(5-aminopentyl)Gly]F[N(5-aminopentyl)Gly]F[N(5-aminopentyl)Gly]F-NH2)"
result = "9%"


Read the next record carefully.
[ask] Identify hemolysis at 60 min, 800 µg/mL associated with the molecule NCCCCNCC(=O)N[C@@H](Cc1ccccc1)C(=O)N(CCCCN)CC(=O)N[C@@H](Cc1ccccc1)C(=O)N(CCCCN)CC(=O)N[C@@H](Cc1ccccc1)C(=O)N(CCCCN)CC(=O)N[C@@H](Cc1ccccc1)C(=O)N(CCCCN)CC(=O)N[C@@H](Cc1ccccc1)C(=O)N(CCCCN)CC(=O)N[C@@H](Cc1ccccc1)C(N)=O [Peptidomimetic 3] (H-[Nlys]F[Nlys]F[Nlys]F[Nlys]F[Nlys]F[Nlys]F-NH2)
[reply] 8%
